Target: T1, Marburg virus Musoke GP on rVSV pseudotype (VSV-MARV Musoke GP) (Marburg virus, Musoke strain, UniProt P35253 19-681)
T1 sequence: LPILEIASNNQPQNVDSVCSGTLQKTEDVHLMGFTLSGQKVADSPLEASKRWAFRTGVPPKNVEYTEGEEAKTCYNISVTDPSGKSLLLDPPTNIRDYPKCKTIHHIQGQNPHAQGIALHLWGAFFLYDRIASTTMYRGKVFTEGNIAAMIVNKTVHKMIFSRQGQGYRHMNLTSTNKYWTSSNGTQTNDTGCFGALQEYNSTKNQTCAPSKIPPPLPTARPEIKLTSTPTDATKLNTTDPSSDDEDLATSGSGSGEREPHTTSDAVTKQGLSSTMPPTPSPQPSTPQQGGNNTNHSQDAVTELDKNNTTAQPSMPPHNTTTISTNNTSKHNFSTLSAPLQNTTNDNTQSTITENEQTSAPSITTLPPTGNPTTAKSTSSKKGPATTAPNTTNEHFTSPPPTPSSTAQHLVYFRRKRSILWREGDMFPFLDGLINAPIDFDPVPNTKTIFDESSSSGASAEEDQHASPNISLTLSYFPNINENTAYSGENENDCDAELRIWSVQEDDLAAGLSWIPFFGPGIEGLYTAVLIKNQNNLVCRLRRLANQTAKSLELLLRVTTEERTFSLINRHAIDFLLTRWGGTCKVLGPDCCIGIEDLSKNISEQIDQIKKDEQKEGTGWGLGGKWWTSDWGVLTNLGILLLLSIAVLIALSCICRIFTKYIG
Test: cell-based or functional assay
readout_name: NT50 (µg/mL)
The response must be a number in µg/mL with no trailing unit.

Solved entries (count: 2):
binder="R79 (antibody, V domains shown) VH: EVQLVESGGGLAKPGGSLRLSCAASGFTFNDYWLFWVRQAPGRGLEWISTINRPGSSTFYADSVKGRFTISRENANNALYLQMDSLRPEDTAVYYCARDQGRTVGYLDYWGQGVLVTVSS VL: QSALTQPRSVSGSPGQSVTISCTGTSSDIGSYSYVSWYQQHPGTAPKLIIYDDSERPSGVSDRFSGSKSGNTASLTISGLQAEDEADYYCSSYAGSNTWVFGGGTRLTVL" readout_name=NT50 unit_name=µg/mL observed=0.17
binder="R55 (antibody, V domains shown) VH: QVQLQESGPGLVKPSETLSLTCAVSGDSISSYWWNWIRQPPGKGLEWIGEIYGYSGSTNYNPSLKSRVTISKDASKKQLSLKLSSVTAADTAVYYCARDPLNQDAFDFWGLGLRVTVSS VL: QSALTQPPSVSGSPGQSVTISCTGTSSDIGGYTYVSWYQQHPGKAPKLMIYDVSRRPSGVSDRFSGSKSGNTASLTISGLQAEDEADYYCSSYAGRNALLFGGGTRLTVL" readout_name=NT50 unit_name=µg/mL observed=0.07

Then this binder:
Entry under test: R29 (antibody, V domains shown) VH: EVQLVESGAGLVQPGGSLRLSCIASGFTFSNSWMTWVRQAPGRGLEWIARIKRKADGETADYAASVKGRFTISRDDSKNTLYLQMNSLKTEDTAVYYCTTYNWNFNFDYWGQGVLVTVSS VL: DIQMTQSPSSLSASVGDRVTITCRASQDISPYLNWYQQKPGKAPKLLIYYGNRLESGVPSRFSGSGSGTDLTLTISSLQPEDFATYYCQQYYRLPLTFGGGTKVEIK . Its NT50 was 0.02
